# Test system: MOLM-13
# MEASUREMENT NOTES: cells
# DETAILS: Homo sapiens, MOLM-13, 72 h
Entries annotated with measured IC50
Give the value, in units of nM, as a plain number.

Cc1sc2c(c1C)C(c1ccc(Cl)cc1)=N[C@@H](CC(=O)Nc1nncs1)c1nnc(C)n1-2    10
Cc1sc2c(c1C)C(c1ccc(Cl)cc1)=N[C@@H](CC(=O)Nc1ccc(O)cc1)c1nnc(C)n1-2 [BIRABRESIB]    11
Cc1sc2c(c1C)C(c1ccc(Cl)cc1)=N[C@@H](CC(=O)NCc1cn(C)nn1)c1nnc(C)n1-2    11

Prompt: Fill blank: measured IC50 of the compound Cc1sc2c(c1C)C(c1ccc(Cl)cc1)=N[C@@H](CC(=O)NCc1c[nH]nn1)c1nnc(C)n1-2 is ____.
Completion: 3

Prompt: Fill blank: measured IC50 of the compound Cc1sc2c(c1C)C(c1ccc(Cl)cc1)=N[C@@H](CC(=O)NCc1cn(C)cn1)c1nnc(C)n1-2 is ____.
Completion: 52

Prompt: Fill blank: measured IC50 of the compound COC(=O)CNC(=O)C[C@@H]1N=C(c2ccc(Cl)cc2)c2c(sc(C)c2C)-n2c(C)nnc21 is ____.
Completion: 9

Prompt: Fill blank: measured IC50 of the compound Cc1sc2c(c1C)C(c1ccc(Cl)cc1)=N[C@@H](CC(=O)NCc1ccccn1)c1nnc(C)n1-2 is ____.
Completion: 8

Prompt: Fill blank: measured IC50 of the compound Cc1sc2c(c1C)C(c1ccc(Cl)cc1)=N[C@@H](CC(=O)NCc1ccon1)c1nnc(C)n1-2 is ____.
Completion: 14
